- Test system: abdominal contortions induced by acetic acid
- PROTOCOL NOTES: Abdominal contortion test induced by acetic acid
- Format: in vivo, Swiss mice
- CONDITION DESCRIPTION: mice, oral, 100 μmol/kg (FIG. 8)
- Method: Additionally, we conducted the evaluation of possible adverse reactions of the compounds of the invention through the abdominal contortion test induced by acetic acid. […] The results are represented in FIG. 8. The antinociceptive profile was evaluated by testing abdominal contortions induced by acetic acid in mice. […] Ten minutes after injection of acetic acid, the contortions were counted for 20 minutes.
ENDPOINT: inhibitory activity of abdominal contortion

// inhibitory activity of abdominal contortion value for O=C(Cc1ccccc1Nc1c(Cl)cccc1Cl)NN1C(=O)c2ccccc2C1=O : ~16.2%

inhibitory activity of abdominal contortion for CC(C(=O)NN1C(=O)c2ccccc2C1=O)c1cccc(C(=O)c2ccccc2)c1 (centres unmarked) is ~37.9%

###

- System: gastric mucosa
- PROTOCOL NOTES: Gastric lesion test (gastric ulcerogenesis)
- Assay type: in vivo, rat
- CONDITION DESCRIPTION: rat, single dose of 100 μmol/kg, scale zero to 5
- Procedure: We performed the evaluation of gastric lesions caused by new anti-inflammatory derived from phthalimide of the invention and compared with standard anti-inflammatory drugs (without molecular modification). […] The stomachs were also evaluated on the number of lesions observed. In order to characterize the profile of gastric lesion caused by the new anti-inflammatory derivatives of the invention the extent of the lesions caused by the administration of said anti-inflammatory agents was measured. […]
ENDPOINT: grade of gastric lesion (ulceration)

Worked cases, grade of gastric lesion (ulceration) given:
{"columns": ["MOLECULE", "ENDPOINT", "REPORTED RESULT"],
 "data": [
  ["CC(C)Cc1ccc(C(C)C(=O)O)cc1 (centres unmarked) [ibuprofen, reference compound]", "grade of gastric lesion (ulceration)", "5 (>4.5 mm=grade 5)"],
  ["COc1ccc2cc([C@H](C)C(=O)O)ccc2c1 [naproxen, reference compound]", "grade of gastric lesion (ulceration)", "5 (>4.5 mm=grade 5)"],
  ["O=C(O)Cc1ccccc1Nc1c(Cl)cccc1Cl [diclofenac, reference compound]", "grade of gastric lesion (ulceration)", "5 (>4.5 mm=grade 5)"],
  ["O=C(O)c1ccccc1O [salicylic acid, reference compound]", "grade of gastric lesion (ulceration)", "5 (>4.5 mm=grade 5)"],
  ["COc1ccc2cc(C(C)C(=O)NN3C(=O)c4ccccc4C3=O)ccc2c1 (centres unmarked)", "grade of gastric lesion (ulceration)", "zero"],
  ["O=C(NN1C(=O)c2ccccc2C1=O)c1ccccc1O", "grade of gastric lesion (ulceration)", "1 (lesions <1 mm=grade 1)"],
  ["CC(C)Cc1ccc(C(C)C(=O)NN2C(=O)c3ccccc3C2=O)cc1 (centres unmarked)", "grade of gastric lesion (ulceration)", "zero"],
  ["Cc1ccc(Nc2c(F)cccc2Cl)c(CC(=O)O)c1 [lumiracoxib, reference compound]", "grade of gastric lesion (ulceration)", "2 (1.5 to 2.5 mm grade 2)"],
  ["Cc1ccc(Nc2c(F)cccc2Cl)c(CC(=O)NN2C(=O)c3ccccc3C2=O)c1", "grade of gastric lesion (ulceration)", "zero"],
  ["O=C(Cc1ccccc1Nc1c(Cl)cccc1Cl)NN1C(=O)c2ccccc2C1=O", "grade of gastric lesion (ulceration)", "zero"]
]}

Query Cc1ccc(-c2cc(C(F)(F)F)nn2-c2ccc(S(N)(=O)=O)cc2)cc1 [celecoxib, reference compound] yields grade of gastric lesion (ulceration) of 2 (1.5 to 2.5 mm grade 2)

Values compiled from patent US20120115817A1.
